# Tgt: Prostaglandin E synthase (Homo sapiens, UniProt O14684)
# Sequence (O14684 whole entry): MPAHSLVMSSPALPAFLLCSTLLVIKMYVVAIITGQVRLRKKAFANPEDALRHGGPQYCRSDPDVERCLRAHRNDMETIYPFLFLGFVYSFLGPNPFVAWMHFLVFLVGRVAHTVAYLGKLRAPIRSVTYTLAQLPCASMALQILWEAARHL
# Experiment description: Inhibition of mPGES-1 isolated from microsomes of interleukin-1 beta-stimulated human A549 cells using PGH2 as substrate preincubated for 15 mins followed by substrate addition measured after 1 min by RP-HPLC analysis
Observable: IC50 (nM)

[a] O=C(O)Cc1ccc(N(Cc2ccc3ccccc3c2)S(=O)(=O)c2ccc(-c3ccccc3)cc2)cc1
[b] Cc1ccc(CN(c2ccc(C(=O)O)cc2)S(=O)(=O)c2ccc(-c3ccccc3)cc2)cc1
[c] Cc1ccc(S(=O)(=O)N(Cc2ccccc2)c2ccc(C(=O)NS(=O)(=O)c3ccccc3)cc2)cc1
Task item: Please arrange the 3 compounds above from largest to smallest IC50 value. I would appreciate it if you listed the labels in the requested order.
Reply: b, c, a

[P] O=C(O)c1ccc(N(Cc2ccc(OCc3ccccc3)cc2)S(=O)(=O)c2ccc(-c3ccccc3)cc2)cc1
[Q] CCCCCCN(c1ccc(C(=O)O)cc1)S(=O)(=O)c1ccc(-c2ccccc2)cc1
Task item: Which has the higher IC50, P or Q ? State your choice using its label.
Reply: P

[A] O=C(O)c1ccc(N(CC2CCCCC2)S(=O)(=O)c2ccc(-c3ccccc3)cc2)cc1
[B] O=C(O)c1ccc(N(Cc2ccc3c(c2)OCO3)S(=O)(=O)c2ccc(-c3ccccc3)cc2)cc1
[C] O=C(O)c1ccc(N(Cc2cnc3ccccc3c2)S(=O)(=O)c2ccc(-c3ccccc3)cc2)cc1
Task item: Exam item: list the entries in increasing order of IC50. I would appreciate it if you listed the labels in the requested order.
Reply: B, A, C
